The origin of these recorded values is paper PMC8273128.

# assay system: SmTGR-U597C (Schistosoma mansoni, UniProt Q962Y6)
# protocol description: X-ray crystallography fragment soaking and co-crystallization
# Assay type: binding
# test conditions: crystal structure of SmTGR-U597C, soaking or co-crystallization

{"columns": ["structure notation", "Binding site"],
 "data": [
  ["Nc1cccc2nsnc12", "Site 2"],
  ["OCc1c[nH]c2ccccc12", "Site 2"]
]}

----------
Please go through the items and note down their pIC50.
# assay system: SmTGR WT (Schistosoma mansoni)
# protocol description: biochemical
pIC50: −log10 of the molar value.

Input: Write down pIC50 measured for item Nc1cccc2nsnc12 [Compound 3, 4-aminopiazthiole]
Output: ~3.30

Input: Write down pIC50 measured for item OCc1c[nH]c2ccccc12 [Compound 4, indole-3-carbinol]
Output: 3.55

Input: Write down pIC50 measured for item Cc1[nH]c2ccccc2c1CC(=O)O [Compound 2, 2-methylindole-3-acetic acid]
Output: < 3.00

Input: Write down pIC50 measured for item COc1nc2ccccc2nc1CCC(=O)O [Compound 1]
Output: < 2.52
